The compounds below have reported IC50 for RNA-directed RNA polymerase L (Andes orthohantavirus).
Only the number, expressed in nM, is required.

entry.smiles | experimental.target | display.unit | IC50
O=C1c2c(ccc(O)c2O)CN1Cc1ccc(O)cc1 | RNA-directed RNA polymerase L (Andes orthohantavirus) | nM | 1600

Observed IC50 on RNA-directed RNA polymerase L (Andes orthohantavirus) for `Cc1ccc(CN2Cc3ccc(O)c(O)c3C2=O)cc1` , please.
6400

Would you mind doing `O=C1c2c(ccc(O)c2O)CN1Cc1ccc2ccccc2c1` as well?
1900

Would you mind doing `O=C1c2c(ccc(O)c2O)CN1Cc1ccc(F)cc1` as well?
1700

----------
Target: RNA-directed RNA polymerase L (Toscana virus, UniProt P37800)
# strict inequality: IC50 < 5 µM yields Condition met, everything else yields Condition not met

entry.smiles | category
O=C1c2c(ccc(O)c2O)CN1Cc1ccccc1 | Condition met
O=C1c2c(ccc(O)c2O)CN1Cc1ccc(Cl)c(C(F)(F)F)c1 | Condition not met
O=C1c2c(ccc(O)c2O)CN1Cc1cccc2ccccc12 | Condition not met
O=C1c2c(ccc(O)c2O)CN1Cc1ccc([N+](=O)[O-])cc1 | Condition met

Moving on to another molecule below.
Lab log: compare recorded IC50 with 5 µM; is it strictly lower for `O=C1c2c(ccc(O)c2O)CN1Cc1ccc(F)c(Cl)c1` ?
Condition not met

----------
Target: RNA-directed RNA polymerase L (Toscana virus) (UniProt P37800)
Sequence (P37800 whole entry): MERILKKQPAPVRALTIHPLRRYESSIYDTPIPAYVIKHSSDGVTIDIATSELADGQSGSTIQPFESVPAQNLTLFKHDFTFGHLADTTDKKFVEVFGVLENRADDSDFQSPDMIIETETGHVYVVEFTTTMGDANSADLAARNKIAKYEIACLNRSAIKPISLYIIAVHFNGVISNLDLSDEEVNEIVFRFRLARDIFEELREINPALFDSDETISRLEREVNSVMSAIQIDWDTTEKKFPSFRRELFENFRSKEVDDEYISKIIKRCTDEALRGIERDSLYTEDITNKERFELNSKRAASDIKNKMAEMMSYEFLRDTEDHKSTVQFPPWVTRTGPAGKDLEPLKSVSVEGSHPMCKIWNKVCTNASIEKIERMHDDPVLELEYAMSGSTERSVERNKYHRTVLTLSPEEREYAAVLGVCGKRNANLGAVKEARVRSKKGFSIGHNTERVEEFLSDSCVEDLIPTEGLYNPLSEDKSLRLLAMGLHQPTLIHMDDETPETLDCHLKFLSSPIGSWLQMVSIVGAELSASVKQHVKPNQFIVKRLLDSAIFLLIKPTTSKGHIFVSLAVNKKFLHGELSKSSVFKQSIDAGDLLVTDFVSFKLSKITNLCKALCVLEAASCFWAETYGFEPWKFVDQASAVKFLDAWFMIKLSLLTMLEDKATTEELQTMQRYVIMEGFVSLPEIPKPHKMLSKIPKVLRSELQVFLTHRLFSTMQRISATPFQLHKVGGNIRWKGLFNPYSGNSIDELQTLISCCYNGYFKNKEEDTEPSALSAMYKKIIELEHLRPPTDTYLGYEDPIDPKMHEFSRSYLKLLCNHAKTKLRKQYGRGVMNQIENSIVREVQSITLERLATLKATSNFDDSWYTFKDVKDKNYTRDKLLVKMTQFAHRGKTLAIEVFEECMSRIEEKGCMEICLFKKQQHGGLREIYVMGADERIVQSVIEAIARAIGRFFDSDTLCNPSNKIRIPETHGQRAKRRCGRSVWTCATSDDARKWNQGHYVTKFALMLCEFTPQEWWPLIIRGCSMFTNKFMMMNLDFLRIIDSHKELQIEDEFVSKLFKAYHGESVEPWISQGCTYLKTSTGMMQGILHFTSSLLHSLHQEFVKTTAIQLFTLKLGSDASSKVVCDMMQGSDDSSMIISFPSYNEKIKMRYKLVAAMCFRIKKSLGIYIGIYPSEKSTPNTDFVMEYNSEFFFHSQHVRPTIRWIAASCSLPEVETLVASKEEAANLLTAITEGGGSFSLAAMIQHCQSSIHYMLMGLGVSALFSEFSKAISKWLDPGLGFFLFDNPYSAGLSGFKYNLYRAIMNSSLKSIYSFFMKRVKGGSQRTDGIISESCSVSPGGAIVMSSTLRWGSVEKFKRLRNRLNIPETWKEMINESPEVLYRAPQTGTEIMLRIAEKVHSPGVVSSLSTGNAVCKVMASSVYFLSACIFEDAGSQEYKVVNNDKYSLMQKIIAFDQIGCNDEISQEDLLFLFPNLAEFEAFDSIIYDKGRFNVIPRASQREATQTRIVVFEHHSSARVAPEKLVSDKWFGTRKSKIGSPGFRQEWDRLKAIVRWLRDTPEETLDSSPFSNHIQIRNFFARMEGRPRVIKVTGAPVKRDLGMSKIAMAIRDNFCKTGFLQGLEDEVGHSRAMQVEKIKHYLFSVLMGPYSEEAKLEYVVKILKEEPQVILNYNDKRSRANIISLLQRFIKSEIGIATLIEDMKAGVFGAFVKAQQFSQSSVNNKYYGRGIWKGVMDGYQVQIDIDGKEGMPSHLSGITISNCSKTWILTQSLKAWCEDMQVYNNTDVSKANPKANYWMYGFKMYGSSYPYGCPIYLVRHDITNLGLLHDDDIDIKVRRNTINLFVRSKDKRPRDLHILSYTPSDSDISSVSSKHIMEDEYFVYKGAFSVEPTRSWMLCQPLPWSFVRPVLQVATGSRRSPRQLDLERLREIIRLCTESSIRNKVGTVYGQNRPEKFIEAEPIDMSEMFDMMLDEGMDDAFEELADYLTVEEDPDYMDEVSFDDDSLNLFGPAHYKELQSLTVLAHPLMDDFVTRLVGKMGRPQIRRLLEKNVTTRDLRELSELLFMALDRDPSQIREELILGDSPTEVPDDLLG
Details: dose 25.0 µM
Activity calls are given as the source filed them. No cut-off for these calls is given here.
Permitted responses: active, inactive

Test call for this compound, please: `O=C1c2c(ccc(O)c2O)CN1Cc1ccc2ccccc2c1`
active

----------
Target: RNA-directed RNA polymerase L (Andes orthohantavirus, UniProt Q9E005)
Sequence (Q9E005 whole entry): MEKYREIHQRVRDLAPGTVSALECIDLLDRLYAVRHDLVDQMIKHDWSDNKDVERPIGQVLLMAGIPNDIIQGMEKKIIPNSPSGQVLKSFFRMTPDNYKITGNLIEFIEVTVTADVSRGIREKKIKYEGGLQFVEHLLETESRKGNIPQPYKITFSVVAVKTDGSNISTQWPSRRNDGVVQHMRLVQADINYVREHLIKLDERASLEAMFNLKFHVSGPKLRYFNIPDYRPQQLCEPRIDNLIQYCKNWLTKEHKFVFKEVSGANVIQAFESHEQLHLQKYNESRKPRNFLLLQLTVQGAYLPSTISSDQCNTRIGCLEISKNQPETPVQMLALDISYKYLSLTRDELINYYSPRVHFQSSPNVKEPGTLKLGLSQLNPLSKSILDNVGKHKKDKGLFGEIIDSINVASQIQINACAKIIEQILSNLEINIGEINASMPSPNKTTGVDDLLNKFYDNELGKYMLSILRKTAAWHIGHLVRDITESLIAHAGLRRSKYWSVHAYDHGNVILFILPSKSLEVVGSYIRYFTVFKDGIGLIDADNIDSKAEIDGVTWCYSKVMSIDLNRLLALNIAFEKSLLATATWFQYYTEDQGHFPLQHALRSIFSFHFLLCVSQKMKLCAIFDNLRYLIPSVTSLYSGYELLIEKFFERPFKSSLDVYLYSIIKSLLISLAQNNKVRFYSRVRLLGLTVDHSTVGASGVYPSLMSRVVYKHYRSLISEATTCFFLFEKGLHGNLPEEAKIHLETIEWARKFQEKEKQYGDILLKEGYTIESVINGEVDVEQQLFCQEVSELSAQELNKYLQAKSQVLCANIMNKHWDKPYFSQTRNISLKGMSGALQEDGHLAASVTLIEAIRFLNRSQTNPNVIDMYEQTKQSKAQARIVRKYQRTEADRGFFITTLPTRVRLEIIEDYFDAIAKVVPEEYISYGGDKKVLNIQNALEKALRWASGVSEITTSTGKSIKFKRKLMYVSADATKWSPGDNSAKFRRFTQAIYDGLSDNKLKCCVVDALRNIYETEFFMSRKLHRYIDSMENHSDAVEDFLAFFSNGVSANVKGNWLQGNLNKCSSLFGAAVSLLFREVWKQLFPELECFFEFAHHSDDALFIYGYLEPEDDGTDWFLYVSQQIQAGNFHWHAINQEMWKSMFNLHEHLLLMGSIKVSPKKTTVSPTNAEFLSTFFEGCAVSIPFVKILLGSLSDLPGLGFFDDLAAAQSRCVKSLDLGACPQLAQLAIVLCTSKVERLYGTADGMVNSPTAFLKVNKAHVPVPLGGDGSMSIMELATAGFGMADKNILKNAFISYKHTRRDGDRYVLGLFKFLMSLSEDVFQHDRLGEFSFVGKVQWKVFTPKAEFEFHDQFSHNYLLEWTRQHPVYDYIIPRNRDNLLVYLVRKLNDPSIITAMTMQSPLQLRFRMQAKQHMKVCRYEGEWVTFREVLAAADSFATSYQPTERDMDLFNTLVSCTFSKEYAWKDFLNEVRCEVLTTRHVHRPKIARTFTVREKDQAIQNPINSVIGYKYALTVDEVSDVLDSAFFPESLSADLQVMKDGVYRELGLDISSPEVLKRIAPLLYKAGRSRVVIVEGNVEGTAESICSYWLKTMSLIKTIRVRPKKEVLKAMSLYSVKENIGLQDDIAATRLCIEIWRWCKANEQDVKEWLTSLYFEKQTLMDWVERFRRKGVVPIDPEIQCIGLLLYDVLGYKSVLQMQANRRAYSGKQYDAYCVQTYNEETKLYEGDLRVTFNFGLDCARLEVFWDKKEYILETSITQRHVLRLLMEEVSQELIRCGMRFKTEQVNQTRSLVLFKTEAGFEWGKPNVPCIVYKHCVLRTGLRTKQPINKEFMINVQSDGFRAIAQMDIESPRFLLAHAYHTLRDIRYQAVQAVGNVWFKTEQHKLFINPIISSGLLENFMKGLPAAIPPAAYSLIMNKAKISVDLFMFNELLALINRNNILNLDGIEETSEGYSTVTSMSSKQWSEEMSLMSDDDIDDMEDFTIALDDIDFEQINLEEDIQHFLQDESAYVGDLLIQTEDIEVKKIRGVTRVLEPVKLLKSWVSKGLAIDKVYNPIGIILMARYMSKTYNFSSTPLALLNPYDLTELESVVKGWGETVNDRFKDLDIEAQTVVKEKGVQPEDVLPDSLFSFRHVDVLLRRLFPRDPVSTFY
measurement.name: IC50 (µM)
Only the number, expressed in µM, is required.

Before answering, review these 2 worked examples.
entry.smiles | experimental.target | measurement.name | display.unit | measured.result
O=C1c2c(ccc(O)c2O)CN1Cc1ccc(Cl)c(C(F)(F)F)c1 | RNA-directed RNA polymerase L (Andes orthohantavirus, UniProt Q9E005) | IC50 | µM | 1.3
O=C1c2c(ccc(O)c2O)CN1Cc1ccccc1 | RNA-directed RNA polymerase L (Andes orthohantavirus, UniProt Q9E005) | IC50 | µM | 1.1

Give the measured IC50 of `O=C1c2c(ccc(O)c2O)CN1Cc1cc(O)c(O)c(O)c1` .
1.5

Would you mind doing `O=C1c2c(ccc(O)c2O)CN1CCc1ccc(O)cc1` as well?
1

----------
Biological target: RNA-directed RNA polymerase L (Toscana virus) (UniProt P37800)
Details: dose 25.0 µM
Active and inactive are the calls of the source. The rule behind the calls is not given here.
measurement.name: Activity

entry.smiles | measurement.name | measured.result
O=C1c2c(ccc(O)c2O)CN1Cc1cccc2ccccc12 | Activity | Active
O=C1c2c(ccc(O)c2O)CN1Cc1ccc(Cl)c(C(F)(F)F)c1 | Activity | Active
Cc1ccc(CN2Cc3ccc(O)c(O)c3C2=O)cc1 | Activity | Active
